Catalogue of compounds with associated Activity
# Tested on: Mus musculus
# Protocol summary: Stimulation of angiogenesis in Matrigel plug implanted C57BL/6 mouse assessed as increase of hemoglobin level after 14 days at 10 ug/plug by Matrigel assay
# Type: functional
Outcome measure: Activity (%)

> print(dat)
                                   compound  target.or.system  value
1  CC(C)(C)OC(=O)NC(Cc1cc(I)c(Oc2cc(I)c(OCC3CO3)c(I)c2)c(I)c1)C(=O)OCC1CO1 (stereo not drawn)      Mus musculus      0
2  N[C@@H](Cc1cc(I)c(Oc2cc(I)c(O)c(I)c2)c(I)c1)C(=O)O      Mus musculus    100
3  CC(C)[Si](OC(=O)C(Cc1cc(I)c(Oc2cc(I)c(O)c(I)c2)c(I)c1)NC(=O)OC(C)(C)C)(C(C)C)C(C)C (stereo not drawn)      Mus musculus      0
4  CCNC(Cc1cc(I)c(Oc2cc(I)c(O)c(I)c2)c(I)c1)C(=O)O (stereo not drawn)      Mus musculus     45
5  CC(=O)NC(Cc1cc(I)c(Oc2cc(I)c(OC(C)=O)c(I)c2)c(I)c1)C(=O)O (stereo not drawn)      Mus musculus     95
6  CC(C)[Si](OC(=O)C(Cc1cc(I)c(Oc2cc(I)c(OCC3CO3)c(I)c2)c(I)c1)NC(=O)OC(C)(C)C)(C(C)C)C(C)C (stereo not drawn)      Mus musculus      0
7  CNC(Cc1cc(I)c(Oc2cc(I)c(O)c(I)c2)c(I)c1)C(=O)O (stereo not drawn)      Mus musculus     87
8  CCCC(=O)NC(Cc1cc(I)c(Oc2cc(I)c(O)c(I)c2)c(I)c1)C(=O)O (stereo not drawn)      Mus musculus     62
